# test_system: T1, Cynomolgus CD3εδ Fc heterodimer (Cy CD3ε Fc / CD3δ Fc-HIS) (cynomolgus, UniProt Q95LI8 22-100)
# T1 chain 1: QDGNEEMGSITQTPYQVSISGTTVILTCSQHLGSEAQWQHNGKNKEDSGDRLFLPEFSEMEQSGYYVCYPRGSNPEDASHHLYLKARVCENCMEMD
# T1 chain 2: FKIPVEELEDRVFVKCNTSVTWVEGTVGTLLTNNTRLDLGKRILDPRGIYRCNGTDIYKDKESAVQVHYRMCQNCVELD
# test: BLI (Octet), IgG on AHC sensor, pH 6.0
Measured koff of individual entries
Write the number in s⁻¹ without appending the unit.

{"columns": ["binder", "metric_name", "display_unit", "result_value"],
 "data": [
  ["SAD10319_P03_G07 (ADI-57325) (antibody, V domains shown, IgG; also called Ab18) VH: QVQLVQSGAEVKKPGASVKVSCKASGYTFDSYLMHWVRQAPGQRLEWMGWIDAGTGATNYSQKFQGRVTITRDTSASTAYMELSSLRSEDTAVYYCARDAHGHYFYDVWGQGTLVTVSS VL: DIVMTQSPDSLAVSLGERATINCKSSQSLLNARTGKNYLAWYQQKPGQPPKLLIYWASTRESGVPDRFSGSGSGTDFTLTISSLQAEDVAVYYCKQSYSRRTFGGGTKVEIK", "koff", "s⁻¹", 0.0187]
]}

koff reading for SAD10319_P05_B05 (ADI-57402) (antibody, V domains shown, IgG; also called Ab129) VH: QVQLVQSGAEVKKPGASVKVSCKASGYTFVDYAMHWVRQAPGQRLEWMGWIDAGTGNTDYSQKFQGRVTITRDTSASTAYMELSSLRSEDTAVYYCARDAHGHYFYDVWGQGTLVTVSS VL: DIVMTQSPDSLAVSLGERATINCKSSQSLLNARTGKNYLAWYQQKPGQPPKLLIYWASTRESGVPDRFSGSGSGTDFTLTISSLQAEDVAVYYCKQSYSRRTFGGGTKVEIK : 0.00654

koff reading for SAD10319_P02_B06 (ADI-57321) (antibody, V domains shown, IgG; also called Ab9) VH: QVQLVQSGAEVKKPGASVKVSCKASGYTFTSYTMHWVRQAPGQRPEWMGSINAGTGFTDYSQKFQGRVTITRDTSASTAYMELSSLRSEDTAVYYCARDHYGHYFYDVWGQGTLVTVSS VL: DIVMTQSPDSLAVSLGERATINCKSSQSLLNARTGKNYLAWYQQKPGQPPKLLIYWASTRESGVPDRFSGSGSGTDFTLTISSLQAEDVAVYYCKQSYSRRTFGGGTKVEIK : 0.00531

koff reading for SAD10319_P04_D12 (ADI-57342) (antibody, V domains shown, IgG; also called Ab42) VH: QVQLVQSGAEVKKPGASVKVSCKASGYTFTSYAMHWVRQAPGQRLDWMGYINPDTGDTKYSQKFQGRVTITRDTSASTAYMELSSLRSEDTAVYYCARDAYHHYFYDVWGQGTLVTVSS VL: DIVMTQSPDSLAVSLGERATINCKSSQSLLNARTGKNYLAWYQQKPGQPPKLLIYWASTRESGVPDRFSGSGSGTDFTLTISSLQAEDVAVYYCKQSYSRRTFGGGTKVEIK : 0.012

koff reading for SAD10320_P02_C05 (ADI-57365) (antibody, V domains shown, IgG; also called Ab76) VH: QVQLVQSGAEVKKPGASVKVSCKASGSNIKDYYMHWVRQAPGQRLEWMGWIDLENANTIYDAKFQGRVTITRDTSASTAYMELSSLRSEDTAVYYCARDAYGHSFYDVWGQGTLVTVSS VL: DIVMTQSPDSLAVSLGERATINCKSSQSLLNARTGKNYLAWYQQKPGQPPKLLIYWASTRESGVPDRFSGSGSGTDFTLTISSLQAEDVAVYYCKQSYHGRTFGGGTKVEIK : 0.0207
